- assayed_target: human TAS2R14 (Homo sapiens, UniProt Q9NYV8)
- Construct: expressed in transfected cells; host or cells: HEK293T-Gα16gust44
- Sequence (Q9NYV8 whole entry): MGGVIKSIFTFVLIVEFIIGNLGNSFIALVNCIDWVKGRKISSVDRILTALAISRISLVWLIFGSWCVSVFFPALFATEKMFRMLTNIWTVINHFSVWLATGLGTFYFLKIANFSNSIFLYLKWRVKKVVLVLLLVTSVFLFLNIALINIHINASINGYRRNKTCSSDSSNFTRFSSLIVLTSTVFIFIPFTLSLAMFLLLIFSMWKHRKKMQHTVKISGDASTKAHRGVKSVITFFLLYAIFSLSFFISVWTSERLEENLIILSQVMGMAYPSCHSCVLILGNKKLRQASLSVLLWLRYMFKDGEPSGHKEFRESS
- assay_remarks: Calcium imaging assay (FLIPR), HEK293T-Gα16gust44 cells transfected with human TAS2R14
- Assay type: cell-based
- test_context: TAS2R14 trace; Time (s) 323.578 (Taurocholic Acid 323.563, Chenodeoxycholic Acid 323.546)
readout_name: RLU (RLU)
Reply with just the number (in RLU).

Past entries and their recorded results:
- C[C@H](CCC(=O)NCCS(=O)(=O)O)[C@H]1CC[C@H]2[C@@H]3[C@H](O)C[C@@H]4C[C@H](O)CC[C@]4(C)[C@H]3C[C@H](O)[C@]12C: 80.4704
- C[C@H](CCC(=O)NCC(=O)O)[C@H]1CC[C@H]2[C@@H]3[C@H](O)C[C@@H]4C[C@H](O)CC[C@]4(C)[C@H]3C[C@H](O)[C@]12C: 189.257
- C[C@H](CCC(=O)NCCS(=O)(=O)O)[C@H]1CC[C@H]2[C@@H]3CC[C@@H]4C[C@H](O)CC[C@]4(C)[C@H]3CC[C@]12C: -64.2935
- C[C@H](CCC(=O)O)[C@H]1CC[C@H]2[C@@H]3[C@H](O)C[C@@H]4C[C@H](O)CC[C@]4(C)[C@H]3CC[C@]12C: 182.748

Attention now turns to another entry.
Look at this compound and give its reported RLU. C[C@H](CCC(=O)O)[C@H]1CC[C@H]2[C@@H]3[C@H](O)C[C@@H]4C[C@H](O)CC[C@]4(C)[C@H]3C[C@H](O)[C@]12C
152.075

###

RLU listing for selected compounds.
- assayed_target: human TAS2R14 (Homo sapiens, UniProt Q9NYV8)
- Construct: expressed in transfected cells; host or cells: HEK293T-Gα16gust44
- assay_remarks: Calcium imaging assay (FLIPR), HEK293T-Gα16gust44 cells transfected with human TAS2R14
- Assay type: cell-based
- test_context: TAS2R14 trace; Time (s) 108.797 (Chenodeoxycholic Acid 108.781)
Return type: number; implicit unit RLU.

Reference set (4 entries):
• C[C@H](CCC(=O)NCCS(=O)(=O)O)[C@H]1CC[C@H]2[C@@H]3CC[C@@H]4C[C@H](O)CC[C@]4(C)[C@H]3CC[C@]12C [Taurolithocholic Acid, taurolithocholic acid] = 361.614
• C[C@H](CCC(=O)NCC(=O)O)[C@H]1CC[C@H]2[C@@H]3[C@H](O)C[C@@H]4C[C@H](O)CC[C@]4(C)[C@H]3C[C@H](O)[C@]12C [Glycocholic Acid, glycocholic acid] = 899.974
• C[C@H](CCC(=O)O)[C@H]1CC[C@H]2[C@@H]3[C@H](O)C[C@@H]4C[C@H](O)CC[C@]4(C)[C@H]3CC[C@]12C [Chenodeoxycholic Acid, chenodeoxycholic acid] = 594.081
• C[C@H](CCC(=O)NCCS(=O)(=O)O)[C@H]1CC[C@H]2[C@@H]3[C@H](O)C[C@@H]4C[C@H](O)CC[C@]4(C)[C@H]3C[C@H](O)[C@]12C [Taurocholic Acid, taurocholic acid] = 931.883

Read the next record carefully.
Please look up its RLU: C[C@H](CCC(=O)O)[C@H]1CC[C@H]2[C@@H]3[C@H](O)C[C@@H]4C[C@H](O)CC[C@]4(C)[C@H]3C[C@H](O)[C@]12C [Cholic Acid, cholic acid]
1236.19

Entry source: paper PMC10247784
